Reported AC35 values are given for each entry in this list.
system: HepG2 viability, CellTiter-Glo ATP luminescence, 72 h; assay: viability loss in human hepatoma cells – cell-based, CellTiter-Glo luminescence, cherry-pick, set 2, cytotoxicity control, dose response (AID 743395)

Examples with answers:
1. CCCCn1c(CN2CCN(c3cccc(Cl)c3)CC2)nc2c1c(=O)[nH]c(=O)n2C : 12.3 µM
2. O=C(c1cccc(S(=O)(=O)N2CCN(c3ccc(F)cc3)CC2)c1)N1CCCC(C(F)(F)F)C1 (stereo not given) : 9.64 µM
3. Clc1ccc(SCc2cc(N3CCOCC3)nc(-c3ccccn3)n2)cc1 : 9 µM
4. O=C(Cc1ccc(Br)cc1)NCc1ccccc1 : 5.52 µM
5. O=C(CCCl)Nc1nc2c(s1)CCc1ccccc1-2 : 20.6 µM

Ask: Reported AC35, compound `C[C@H]1CN([C@@H](C)CO)S(=O)(=O)c2ccc(C#Cc3ccc(F)cc3)cc2O[C@H]1CN(C)C(=O)NC1CCCC1` : ____
Reply: 19.1 µM

Ask: Reported AC35, compound `Cc1ccc(C(=O)N/N=C/c2cc(Br)ccc2O)cn1` : ____
Reply: 17.8 µM

Ask: Reported AC35, compound `Nc1sc(-c2ccccc2)cc1-c1n[nH]c(=S)n1C1CCCCC1` : ____
Reply: 7.54 µM

Ask: Reported AC35, compound `COc1ccc(CNS(=O)(=O)c2cc(-c3cc(C)no3)ccc2C(C)C)cc1` : ____
Reply: 7.14 µM

Ask: Reported AC35, compound `COCC(=O)N1CC2(CCN(Cc3ccccc3)CC2)c2c([nH]c3cc(OC)ccc23)[C@H]1CO` : ____
Reply: 5.27 µM
